Molecular target: T1, cynomolgus monkey CD19 on peripheral blood B cells (cynomolgus monkey (Macaca fascicularis), UniProt A0A2K5W8L9 20-557)
T1 construct: whole, on cells; also called cynomolgus monkey B cells
T1 sequence: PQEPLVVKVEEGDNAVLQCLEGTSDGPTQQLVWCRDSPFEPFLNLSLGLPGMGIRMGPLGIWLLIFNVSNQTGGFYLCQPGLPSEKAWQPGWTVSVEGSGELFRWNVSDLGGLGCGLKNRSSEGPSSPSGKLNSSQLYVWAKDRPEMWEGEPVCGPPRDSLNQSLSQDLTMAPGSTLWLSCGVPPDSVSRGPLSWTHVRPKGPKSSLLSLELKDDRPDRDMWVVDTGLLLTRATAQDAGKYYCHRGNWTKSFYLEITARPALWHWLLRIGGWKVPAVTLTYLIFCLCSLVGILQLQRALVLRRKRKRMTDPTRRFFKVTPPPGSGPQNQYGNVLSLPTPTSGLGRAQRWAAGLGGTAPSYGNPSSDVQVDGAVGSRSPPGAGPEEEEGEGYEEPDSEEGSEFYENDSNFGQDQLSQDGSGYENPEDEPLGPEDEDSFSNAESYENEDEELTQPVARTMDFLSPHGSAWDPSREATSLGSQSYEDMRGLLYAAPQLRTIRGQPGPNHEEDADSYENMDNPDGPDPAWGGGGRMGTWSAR
Assay: FACS, cynomolgus PBMC, CD20+ B cells
Protocol: The monkey peripheral blood mononuclear cells were extracted from fresh cynomolgus monkey peripheral blood (purchased from Shanghai Medicilon Inc.) according to the instructions of Ficoll-Paque Plus (purchased from GE Healthcae, catalog number: 171440-02). After the cell suspension was centrifuged, the cells were resuspended in PBS containing 1% BSA, and then the cells were counted. […] The mixture was incubated for 1 h at room temperature. […]
Proportion of chimeric antibody positive cells to B cells (%) at 100 nM listing for selected binders.
Expressed in %, but write only the number.

binder	observed value
F3.126.15 (antibody, human IgG1, V domains shown, human-murine chimeric antibody, human IgG1) VH: QVQLQQPGAELVMPGASVKLSCKASGYTFTSYWMHWVKQRPGQGLEWIGEIDPSDSYTTYNQNFKGKATLTVDISTSTAYIQLSNLTSEDSAVYYCARLTGNYIHYWGQGTTLTVSS VL: DIVMTQSHKFMSTSVGDRVSITCKASQDVSPAVAWYQQRPGQCPKLLIFSSSYRSTGVPDRFTGSGSGTDFTFTISSVQAEDLAVYYCQQHYSLPLTFGAGTKLELK	49

# next binder below
Input: Supply reported Proportion of chimeric antibody positive cells to B cells (%) at 100 nM belonging to this binder: F4.191.1 (antibody, human IgG1, V domains shown, human-murine chimeric antibody, human IgG1) VH: QVQLQQPGAELVRPGASVKLSCKASGYTFTSYWINWVKQRPGQGLEWIGNIHPSDSYTNYNQKFKDKATLTVDKSSSTAYMQFSSPTSEDSAVYYCTREDYYYGSNYDAMDYWGQGTSVTVSS VL: DIVMTQSHKFMSTSVGDRVNITCKASQDVGSSVAWYQQKPGQSPKLLIYWASTRHAGVPDRFTGSGSGADFTLTISNVQSEDLADYFCQQYSTYPLTFGAGTKLELK
Output: 50

src = patent US20250042994A1
